tested on: RPMI-8226; test: NCI tumour cell line growth inhibition, 48 h
Active and inactive are the calls of the source. No stated cut-off is given here; in the data, active = GI50 up to about 1.1 µM and inactive = higher.
Give one outcome, nothing more. List: Yes (active), No (inactive)

[in] State the result this test recorded for COc1ccc(NC(=O)CC(=O)N/N=C/c2ccc(N(CCC#N)S(=O)(=O)c3ccccc3)cc2)cc1 .
[out] No

[in] Quick one: Cc1ccc(F)cc1NC(=O)O/N=C(\Cl)C(C)C
[out] No

[in] Quick one: CN(C)CCNC1=Nc2ccccc2C(=S)N2CSCC12 (stereo not drawn)
[out] No

[in] Quick one: COC(=O)c1cc2/c(=N/O)c3ccccc3sc2o1
[out] No

[in] Quick one: COc1cc2c(cc1OCCCCCCCCN1C(=O)c3cccc4cccc(c34)C1=O)N=C[C@@H]1CCCN1C2=O
[out] No

[in] Quick one: O=C(O)c1c2c(cc3c(=O)cc(-c4ccccc4)oc13)CCCC2
[out] No

[in] Quick one: C=C1CC(COc2ccc3c(C)c(Cl)c(=O)oc3c2)(c2ccccc2)OC1=O (stereo not drawn)
[out] Yes

[in] Quick one: COc1ccc(NC(C)=O)c(C(=O)CCNC(C)=O)c1
[out] No

[in] Quick one: CC1=CC[C@@]2(C)CC[C@](O)(C(C)C)C2C(OC(=O)c2ccccc2)C1 (stereo partly drawn)
[out] No

[in] Quick one: CCCCCCCCCCCCC(O)C1CCC(C(O)CCCCCCC(O)CCCCCCCC2=CC(C)OC2=O)O1 (stereo not drawn)
[out] No

[in] Quick one: CN(C)c1ccc(C=c2c3ccccc3n3c2c2c([n+]3C)CCCC2)cc1
[out] Yes

[in] Quick one: Cc1ccc(S(=O)(=O)NC(=O)Nc2ccc(C(=O)O)cc2)cc1
[out] No

[in] Quick one: CN(C)/N=C(\CCN1CCCC1)CC(c1ccccc1)c1c(O)c2ccccc2oc1=O (stereo not drawn)
[out] No

[in] Quick one: COc1ccc(C(C#N)NCCCCCCNC(C#N)c2ccc(OC)cc2)cc1 (stereo not drawn)
[out] No

[in] Quick one: Cc1cc2nc3ccc(N(C)C)cc3[s+]c2cc1N [TOLONIUM CHLORIDE]
[out] No

[in] Quick one: CCCCOC(=O)Nc1ccc(S(=O)(=O)Nc2ccccc2Cl)cc1
[out] No

[in] Quick one: CC1(C)CCC[C@]2(C)[C@@H]1CC[C@@]13O[C@@H]1C1=C(CO)C(=O)OC1=C[C@@H]23
[out] No

[in] Quick one: OC1C2C=CCC1CCC2 (stereo not drawn)
[out] No

[in] Quick one: Cc1c(NC(=S)NN)c(=O)n(-c2ccccc2)n1C
[out] No

[in] Quick one: O=C(O)CNn1c(SCC(=O)O)nnc(/C=C/c2c(O)ccc3ccccc23)c1=O
[out] No

[in] Quick one: CCNC(=S)N/N=C1\C(=O)Nc2ccc([N+](=O)[O-])cc21
[out] No

[in] Quick one: COc1ccc(-[n+]2nc(S(=O)(=O)O)c(/C=C/c3ccc(N(C)C)cc3)cc2C#N)cc1
[out] No

[in] Quick one: COc1cccc2cc(C(=O)NC34CC5CC(CC(C5)C3)C4)c(=N)oc12
[out] No
